Overview of recorded log10 IC50 for various compounds
- study system: hRIPK1 (aa 1-375) fusion protein (Homo sapiens, UniProt Q13546)
- Construct: hRIPK1 (aa 1-375) fusion protein
- Sequence (Q13546 1-375): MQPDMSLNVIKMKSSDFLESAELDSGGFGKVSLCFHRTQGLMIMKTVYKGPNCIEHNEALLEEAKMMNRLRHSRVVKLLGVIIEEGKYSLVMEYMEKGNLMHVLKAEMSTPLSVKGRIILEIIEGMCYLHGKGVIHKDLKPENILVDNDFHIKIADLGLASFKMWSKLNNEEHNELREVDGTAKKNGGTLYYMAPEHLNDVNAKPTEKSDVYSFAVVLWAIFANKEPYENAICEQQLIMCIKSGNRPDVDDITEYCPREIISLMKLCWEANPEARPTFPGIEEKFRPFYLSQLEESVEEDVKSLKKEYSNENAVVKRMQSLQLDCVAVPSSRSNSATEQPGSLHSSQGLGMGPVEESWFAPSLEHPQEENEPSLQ
- assay comment: ADP-Glo kinase assay: catalytic activity of RIPK1 (autophosphorylation, conversion of ATP to ADP)
- Protocol: The catalytic activity of RIPK1 was measured by monitoring the conversion of Adenosine triphosphate (ATP) to Adenosine diphosphate (ADP) due to autophosphorylation using an ADP-Glo kinase kit (Promega, catalog no. V9104). […]
readout name: log10 IC50 (log10 of the value in nM)

[[record]]
compound = "Cc1nc2cc(C[C@H]3CC[C@H](C(=O)N4OCC[C@H]4c4cccc(C#N)c4)CC3)ccn2n1 [compound 1]"
obs_value = 1.32

[[record]]
compound = "Cc1nn(C[C@H]2CC[C@H](C(=O)N3OCC[C@H]3c3cc(F)cc(C#N)c3)CC2)c2cc(C#N)cc(F)c12 [compound 100]"
obs_value = 1.23

[[record]]
compound = "Cc1nc2ccc(C[C@H]3CC[C@H](C(=O)N4OCC[C@H]4c4ccc(F)c(F)c4)CC3)nn2n1 [compound 310]"
obs_value = 1.08

[[record]]
compound = "Cc1cnc([C@@H]2CCON2C(=O)[C@H]2CC[C@H](Cc3cc(C)ncc3Cl)CC2)cn1 [compound 385]"
obs_value = 1.38

[[record]]
compound = "Cc1ccc([C@@H]2CCON2C(=O)[C@H]2CC[C@H](Cc3cc(C)c4nc(C)nn4c3)CC2)cn1 [compound 325]"
obs_value = 2.10

[[record]]
compound = "O=C([C@H]1CC[C@H](Cn2ccc3cc(F)ccc32)CC1)N1OCC[C@H]1c1cc(F)cc(F)c1 [compound 96]"
obs_value = 1.20

[[record]]
compound = "N#Cc1cncc([C@@H]2CCON2C(=O)[C@H]2CC[C@H](Cn3ncc4cc(F)ccc43)CC2)c1 [compound 126]"
obs_value = 1.57


----------
- study system: hRIPK1 (aa 1-375) fusion protein (Homo sapiens)
- Construct: hRIPK1 (aa 1-375) fusion protein
- assay comment: ADP-Glo kinase assay: catalytic activity of RIPK1 (autophosphorylation, conversion of ATP to ADP)
Label scheme, based on IC50: lower range: < 20 nM; middle range: ≥ 20 nM and < 30 nM; upper range: ≥ 30 nM

[[record]]
compound = "NC(=O)c1cc(C[C@H]2CC[C@H](C(=O)N3OCC[C@H]3c3cnccn3)CC2)ccc1F [compound 193]"
label_class = "lower range"

[[record]]
compound = "N#Cc1cncc([C@@H]2CCON2C(=O)[C@H]2CC[C@H](Cc3ccc(F)c(C(N)=O)c3)CC2)c1 [compound 194]"
label_class = "middle range"

[[record]]
compound = "Cc1ncc([C@@H]2CCON2C(=O)[C@H]2CC[C@H](Cc3cc(C)c4ncnn4c3)CC2)cc1F [compound 335]"
label_class = "middle range"

[[record]]
compound = "N#Cc1cc(F)cc([C@@H]2CCON2C(=O)[C@H]2CC[C@H](Cc3cc(F)c4c(c3)C(=O)NC4)CC2)c1 [compound 219]"
label_class = "lower range"

[[record]]
compound = "Cc1cc([C@@H]2CCON2C(=O)[C@H]2CC[C@H](Cn3cnc4c(F)cc(C#N)cc43)CC2)co1 [compound 38]"
label_class = "upper range"

[[record]]
compound = "N#Cc1cc(F)cc([C@@H]2CCON2C(=O)[C@H]2C[C@H](Cn3cnc4cc(F)ccc43)C2)c1 [compound 116]"
label_class = "upper range"

[[record]]
compound = "Cc1cnc([C@@H]2CCON2C(=O)[C@H]2CC[C@H](Cc3cc(C)ncc3F)CC2)cn1 [compound 384]"
label_class = "middle range"

[[record]]
compound = "COc1cncc([C@@H]2CCON2C(=O)[C@H]2CC[C@H](Cn3cc4ccc(C#N)cc4n3)CC2)n1 [compound 189]"
label_class = "upper range"

[[record]]
compound = "Cc1nnc2ccc(CC3CCC(C(=O)N4OCC[C@H]4c4cnccn4)CC3)c(C)n12 (stereo partly shown) [compound 358]"
label_class = "upper range"

[[record]]
compound = "Cn1nccc1C[C@H]1CC[C@H](C(=O)N2OCC[C@H]2c2ccc(F)c(F)c2)CC1 [compound 311]"
label_class = "lower range"

